# Organism: Rattus norvegicus
# protocol details: Open TG-GATES - Regimen: Single
# Type: toxicity, organism-based, Sprague-Dawley
# Set-up: regimen Single, gender Male, age 6 weeks
# protocol conditions: in vivo, po, 0 mg/kg, 24 h, tissue Blood, route gavage, dose level Control
The entries below come with measured Lym values attached.
// note: answer is a bare numeric in %

molecule: Cn1c(=O)c2[nH]cnc2n(C)c1=O.O [THEOPHYLLINE]
Lym / %: 82.2
--
molecule: O=C(O)c1cn(C2CC2)c2cc(N3CCNCC3)c(F)cc2c1=O [CIPROFLOXACIN]
Lym / %: 80

For the molecule shown here, NC(=O)N1c2ccccc2C=Cc2ccccc21 [CARBAMAZEPINE] , give the reported Lym.
79.8

For the molecule shown here, NC(=O)N/N=C/c1ccc([N+](=O)[O-])o1 [NITROFURAZONE] , give the reported Lym.
76.8

For the molecule shown here, Clc1ccccc1CN1CCc2sccc2C1 [TICLOPIDINE] , give the reported Lym.
75

For the molecule shown here, CC(=O)Oc1ccccc1C(=O)O [ASPIRIN] , give the reported Lym.
77.2

----------
The entries below come with measured DBIL values attached.
# Organism: Rattus norvegicus
# protocol details: Open TG-GATES - Regimen: Daily Repeat
# Assay type: toxicity, organism-based, Sprague-Dawley
# Design: regimen Daily Repeat, gender Male, age 6 weeks
# protocol conditions: in vivo, po, 0 mg/kg, […], tissue Plasma, route gavage, dose level Control, time 28 day
// note: answer is a bare numeric in mg/dL

compound: CO[C@H]1/C=C/O[C@@]2(C)Oc3c(C)c(O)c4c(O)c(c(/C=N/N5CCN(C)CC5)c(O)c4c3C2=O)NC(=O)/C(C)=C\C=C\[C@H](C)[C@H](O)[C@@H](C)[C@@H](O)[C@@H](C)[C@H](OC(C)=O)[C@@H]1C
units label: mg/dL
DBIL: 0.014
--
compound: CN(C)CCC=C1c2ccccc2CCc2ccccc21
units label: mg/dL
DBIL: 0.02
--
compound: Cn1c(=O)c2[nH]cnc2n(C)c1=O.O
units label: mg/dL
DBIL: 0
--
compound: CC(=O)Oc1ccccc1C(=O)O
units label: mg/dL
DBIL: 0.1
--
compound: COc1ccc2c(c1)c(CC(=O)O)c(C)n2C(=O)c1ccc(Cl)cc1
units label: mg/dL
DBIL: 0.018
--
compound: CSc1ccc2c(c1)N(CCC1CCCCN1C)c1ccccc1S2 (centres undefined)
units label: mg/dL
DBIL: 0

For the compound shown here, NC(=O)N/N=C/c1ccc([N+](=O)[O-])o1 , give the reported DBIL.
0.014

For the compound shown here, O=C(O)c1cn(C2CC2)c2cc(N3CCNCC3)c(F)cc2c1=O , give the reported DBIL.
0.048

For the compound shown here, CCc1cc(C(N)=S)ccn1 [ETHIONAMIDE] , give the reported DBIL.
0.02

----------
The entries below come with measured TERMINAL_BW values attached.
# Species: Rattus norvegicus
# protocol details: Open TG-GATES - Regimen: Single
# Format: toxicity, organism-based, Sprague-Dawley
# Design: regimen Single, gender Male, age 6 weeks
# protocol conditions: in vivo, po, 0 mg/kg, 9 h, route gavage, dose level Control
// note: answer is a bare numeric in g

Worked cases, answers included:
compound: O=C(O)c1cc(/N=N/c2ccc(S(=O)(=O)Nc3ccccn3)cc2)ccc1O [SULFASALAZINE]
measured quantity: TERMINAL_BW
quantitative result: 205

compound: CSc1ccc2c(c1)N(CCC1CCCCN1C)c1ccccc1S2 (stereo not drawn) [THIORIDAZINE]
measured quantity: TERMINAL_BW
quantitative result: 210.2

compound: NC(=O)N/N=C/c1ccc([N+](=O)[O-])o1 [NITROFURAZONE]
measured quantity: TERMINAL_BW
quantitative result: 179.5

Now take the following compound into account.
For the compound shown here, COc1ccc(Cc2nccc3cc(OC)c(OC)cc23)cc1OC [PAPAVERINE] , give the reported TERMINAL_BW.
213.9

----------
# Organism: Rattus norvegicus
# protocol details: Open TG-GATES - Regimen: Daily Repeat
# Format: toxicity, organism-based, Sprague-Dawley
# Parameters: regimen Daily Repeat, gender Male, age 6 weeks
# protocol conditions: in vivo, po, 0 mg/kg, 72 h, tissue Blood, route gavage, dose level Control, time 3 day
measured quantity: MCV (fL)
// note: answer is a bare numeric in fL

molecule: COc1ccc2c(c1)c(CC(=O)O)c(C)n2C(=O)c1ccc(Cl)cc1 [INDOMETHACIN]
MCV [fL]: 64.6

For the molecule shown here, CN(C)CCC=C1c2ccccc2CCc2ccccc21 [AMITRIPTYLINE] , give the reported MCV.
65.1

For the molecule shown here, CO[C@H]1/C=C/O[C@@]2(C)Oc3c(C)c(O)c4c(O)c(c(/C=N/N5CCN(C)CC5)c(O)c4c3C2=O)NC(=O)/C(C)=C\C=C\[C@H](C)[C@H](O)[C@@H](C)[C@@H](O)[C@@H](C)[C@H](OC(C)=O)[C@@H]1C [RIFAMPIN] , give the reported MCV.
63.9

----------
The entries below come with measured CRE values attached.
# Species: Rattus norvegicus
# protocol details: Open TG-GATES - Regimen: Single
# Type: toxicity, organism-based, Sprague-Dawley
# Design: regimen Single, gender Male, age 6 weeks
# protocol conditions: in vivo, po, 0 mg/kg, 6 h, tissue Plasma, route gavage, dose level Control
// note: answer is a bare numeric in mg/dL

Worked cases, answers included:
molecule: CN(C)CCC=C1c2ccccc2CCc2ccccc21 [AMITRIPTYLINE]
CRE / mg/dL: 0.1

molecule: O=C(O)c1cn(C2CC2)c2cc(N3CCNCC3)c(F)cc2c1=O [CIPROFLOXACIN]
CRE / mg/dL: 0.5

molecule: C[C@H](CS)C(=O)N1CCC[C@H]1C(=O)O [CAPTOPRIL]
CRE / mg/dL: 0.6

For the molecule shown here, COc1ccc(Cc2nccc3cc(OC)c(OC)cc23)cc1OC [PAPAVERINE] , give the reported CRE.
0.1

----------
The entries below come with measured Eos values attached.
# Species: Rattus norvegicus
# protocol details: Open TG-GATES - Regimen: Daily Repeat
# Type: toxicity, organism-based, Sprague-Dawley
# Parameters: regimen Daily Repeat, gender Male, age 6 weeks
# protocol conditions: in vivo, po, 0 mg/kg, […], tissue Blood, route gavage, dose level Control, time 28 day
// note: answer is a bare numeric in %

Worked cases, answers included:
structure string: CCCC(CCC)C(=O)O
measured quantity: Eos
quantitative result: 1

structure string: Cn1c(=O)c2[nH]cnc2n(C)c1=O.O
measured quantity: Eos
quantitative result: 1

structure string: C[C@H](CS)C(=O)N1CCC[C@H]1C(=O)O
measured quantity: Eos
quantitative result: 1

structure string: Clc1ccccc1CN1CCc2sccc2C1
measured quantity: Eos
quantitative result: 1

structure string: O=C(O)c1cn(C2CC2)c2cc(N3CCNCC3)c(F)cc2c1=O
measured quantity: Eos
quantitative result: 1

For the molecule shown here, CC(=O)Oc1ccccc1C(=O)O , give the reported Eos.
1

For the molecule shown here, CN(C)CCC=C1c2ccccc2CCc2ccccc21 , give the reported Eos.
1

----------
# Organism: Rattus norvegicus
# protocol details: Open TG-GATES - Regimen: Single
# Type: toxicity, organism-based, Sprague-Dawley
# Parameters: regimen Single, gender Male, age 6 weeks
# protocol conditions: in vivo, po, 0 mg/kg, 9 h, tissue Plasma, route gavage, dose level Control
The entries below come with measured RALB values attached.
Write the numeric value and follow it with the unit.

compound: CN(C)CCC=C1c2ccccc2CCc2ccccc21
RALB: 2.5 g/dL
//
compound: CCc1cc(C(N)=S)ccn1 [ETHIONAMIDE]
RALB: 3.6 g/dL
//
compound: NC(=O)N1c2ccccc2C=Cc2ccccc21 [CARBAMAZEPINE]
RALB: 3.3 g/dL

Now take the following compound into account.
For the compound shown here, O=C(O)c1cn(C2CC2)c2cc(N3CCNCC3)c(F)cc2c1=O , give the reported RALB.
3.8 g/dL

----------
# Species: Rattus norvegicus
# protocol details: Open TG-GATES - Regimen: Single
# Format: toxicity, organism-based, Sprague-Dawley
# Design: regimen Single, gender Male, age 6 weeks
# protocol conditions: in vivo, po, 0 mg/kg, 3 h, tissue Plasma, route gavage, dose level Control
The entries below come with measured K values attached.
// note: answer is a bare numeric in meq/L

Worked cases, answers included:
structure string: CN(C)CCC=C1c2ccccc2CCc2ccccc21
measured quantity: K
quantitative result: 4.1

structure string: Clc1ccccc1CN1CCc2sccc2C1
measured quantity: K
quantitative result: 3.9

structure string: CC(=O)Oc1ccccc1C(=O)O
measured quantity: K
quantitative result: 3.9

structure string: O=C(O)c1cc(/N=N/c2ccc(S(=O)(=O)Nc3ccccn3)cc2)ccc1O
measured quantity: K
quantitative result: 3.9

structure string: COc1ccc(Cc2nccc3cc(OC)c(OC)cc23)cc1OC
measured quantity: K
quantitative result: 4

Now take the following compound into account.
For the compound shown here, NC(=O)N/N=C/c1ccc([N+](=O)[O-])o1 , give the reported K.
4.1
